Quick reference for logD among some molecules
Assay: Lipophilicity, logD of compound
Assay type: physicochemical
Conditions: octanol/water
Number only, please.

COc1ccc(CCN2CCC(Nc3nc4ccccc4n3Cc3ccc(F)cc3)CC2)cc1
2.9

# ---- query molecule ----
[in] Quickly give me recorded logD for CSc1ccc2c(c1)C(N1CCN(C)CC1)Cc1ccccc1S2 (configuration not stated) [METITEPINE]
[out] 3.5
